As an illustration, consider measured pKi for molecules on h5-HT5A receptor (Homo sapiens, UniProt P47898).
Sequence (P47898 whole entry): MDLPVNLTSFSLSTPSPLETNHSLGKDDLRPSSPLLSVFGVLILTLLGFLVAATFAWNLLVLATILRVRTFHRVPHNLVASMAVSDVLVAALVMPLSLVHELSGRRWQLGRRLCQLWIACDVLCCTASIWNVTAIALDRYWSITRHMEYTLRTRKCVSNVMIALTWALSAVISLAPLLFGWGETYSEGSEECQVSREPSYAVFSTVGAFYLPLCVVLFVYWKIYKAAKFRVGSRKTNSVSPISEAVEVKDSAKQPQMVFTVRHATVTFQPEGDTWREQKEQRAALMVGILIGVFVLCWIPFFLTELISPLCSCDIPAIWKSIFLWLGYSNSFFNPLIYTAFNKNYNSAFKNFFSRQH
pKi: −log10 of the molar value. Counter-ions that a name gives are not always drawn.

Examples with answers:
MOLECULE: COc1cc([N+](=O)[O-])ccc1Cn1cc(-c2ccc(C#N)cc2)nc1N
RESULT VALUE: < 6.22
--
MOLECULE: COc1ccccc1Cn1nc(-c2ccccc2)nc1N
RESULT VALUE: < 6.22
--
MOLECULE: COc1ccccc1Cc1cn(-c2ccccc2)nc1N
RESULT VALUE: < 6.22

Result for COc1ccccc1Cn1cc(-c2ccccc2)nc1N [Example 10, hydrochloride] , tested on h5-HT5A receptor (Homo sapiens, UniProt P47898), pKi: > 6.22

# value of pKi, h5-HT5A receptor (Homo sapiens, UniProt P47898), item `COc1ccccc1Cn1cc(-c2ccc(Br)cc2)nc1N` = > 6.22

Let me check: `COc1cccc(Cl)c1Cn1cc(-c2ccc(OC(F)(F)F)cc2)nc1N` , system h5-HT5A receptor (Homo sapiens, UniProt P47898), measured pKi is > 6.22

The molecule COc1ccccc1Cn1cc(-c2nccs2)nc1N [Example 49, hydrochloride] on h5-HT5A receptor (Homo sapiens, UniProt P47898): pKi was > 6.22

The molecule `COc1ccccc1Cn1cc(-c2cccs2)nc1N` on h5-HT5A receptor (Homo sapiens, UniProt P47898): pKi was > 6.22
